Below is a list of entries, each paired with its recorded ratio to parent value.
B1: full-length mouse LIGHT, on cells (mLIGHT-IRES-EGFP) [mouse] / full-length WT mouse HVEM-mCherry, on cells [mouse] (parent complex)
chain 1: MESVVQPSVFVVDGQTDIPFRRLEQNHRRRRCGTVQVSLALVLLLGAGLATQGWFLLRLHQRLGDIVAHLPDGGKGSWEKLIQDQRSHQANPAAHLTGANASLIGIGGPLLWETRLGLAFLRGLTYHDGALVTMEPGYYYVYSKVQLSGVGCPQGLANGLPITHGLYKRTSRYPKELELLVSRRSPCGRANSSRVWWDSSFLGGVVHLEAGEEVVVRVPGNRLVRPRDGTRSYFGAFMV
chain 2: QPSCRQEEFLVGDECCPMCNPGYHVKQVCSEHTGTVCAPCPPQTYTAHANGLSKCLPCGVCDPDMGLLTWQECSSWKDTVCRCIPGYFCENQDGSHCSTCLQHTTCPPGQRVEKRGTHDQDTVCADCLTGTFSLGGTQEECLPWTNCSAFQQEVRRGTNSTDTTCSSQVVYYVVSILLPLVIVGAGIAGFLICTRRHLHTSSVAKELEPFQEQQENTIRFPVTEVGFAETEEETASN

# Variants of: B1
# assay-remarks: flow cytometry, cell–cell method
readout-label: ratio to parent

mutation-key	recorded-measurement
chain 2 G34R	0.6
chain 2 A38D	1.1
chain 2 L56D	0.6
chain 2 T35D	0.3
chain 2 S30A	1
chain 2 R5D	1.1
chain 2 A49D	1.2
chain 2 H48D	0.8
chain 2 L52R	0.4
chain 2 G51D	0.4
chain 2 N50A	0.5
chain 2 T35A	0.7
chain 2 E8A	0.9
chain 2 H96D	0.7
chain 2 A38W	0.9
chain 2 S98A	0.9
chain 2 T99D	0.7
chain 2 K77A	1.8
chain 2 K26A	1
chain 2 R5A	0.5
chain 2 G34D	0.9
chain 2 E8R	1
chain 2 G34A	1.2
chain 2 N50D	0.5
chain 2 S30D	0.8
chain 2 L52A	0.7
chain 2 T99A	0.8
chain 2 L52D	0.4
chain 2 V36D	0.9
chain 2 L56A	0.8
chain 2 K77D	1.4
chain 2 V36A	1
chain 2 K26D	1.1
chain 2 M18D	0.9
chain 2 P17A	0.8
chain 2 S30H	1.1

Values compiled from paper PMC8558838.
